meta.source: PubChem BioAssay (NCI)

- Test system: 786-0 renal
- test_details: NCI-60 one-dose screen, 48 h (100 = growth as untreated, 0 = no growth, -100 = all killed)
- measurement_context: 10 µM unless noted
The panel holds about 83,000 compounds, 20% with a hit somewhere; the sample as a whole holds those more often.
Tag: Yes if measured growth is not below 50%, No if it is.

Would you please look over these solved cases?
{"compound": "O=C(/C=C/c1cc2ccccc2[nH]c1=O)c1ccc(Cl)cc1", "group": "No"}
{"compound": "[O-]/[N+](=C\\C=C\\c1ccccc1)c1ccccc1", "group": "Yes"}
{"compound": "C[n+]1c2ccccc2c(Nc2ccc(N3CCCCC3)cc2)c2[nH]c3ccccc3c21", "group": "No"}
{"compound": "Cc1cc(NCCCNc2ccnc3cc(Cl)ccc23)nc(N2CCN(C)CC2)n1", "group": "Yes"}
{"compound": "COc1ccc2c(c1)C(=O)c1c-2c(OCCN(C)C)nc2cc(OC)ccc12", "group": "No"}
{"compound": "COc1cc([C@@H]2c3cc4c(cc3C(O[C@@H]3O[C@@H]5CO[C@@H](c6cccs6)OC5[C@H](O)[C@H]3O)C3COC(=O)[C@@H]32)OCO4)cc(OC)c1O (stereo partly specified)", "group": "No"}
{"compound": "COc1ccc(/C=C2\\COc3ccc(O)c(O)c3C2=O)cc1OC", "group": "No"}
{"compound": "CCOC(=O)/C(=C/c1ccccc1)C(=O)c1ccccc1", "group": "Yes"}

Kindly consider the entry below.
Asked: Threshold query (growth >= 50%) on `CC/C(=C\c1ccc(N(C)C)cc1)c1ccncc1`
Given back: Yes
